assay: In vitro cleavage assay in buffer; type: physicochemical; conditions: 0.1 M potassium phosphate buffer pH 7.4, 23 degrees C; read-out: half-life of disappearance (converted)

smiles input: CNCCN(C)C(=O)Oc1cc2cc(c1)NC(=O)/C(C)=C/CC[C@H](C)[C@@H](OC(N)=O)/C(C)=C/[C@H](C)[C@@H](O)[C@@H](OC)C[C@H](C)C2
readout units: h
half-life at 0.1 mg/ml: 2

* * *

Entries and their measured Papp A→B at 2 h, 10 uM follow.
assay: In vitro Caco-2 assay for cell permeability; assay type: in vitro ADME; settings: human, Caco-2, pH 7.4, 10 uM, 2 hour incubation; read-out: Permeability Apical to Basolateral Papp(A → B) Mean
value type: Papp A→B at 2 h, 10 uM (×10⁻⁶ cm/s)

smiles input: CO[C@H]1C[C@H](C)Cc2cc(cc(OP(=O)(O)O)c2)NC(=O)/C(C)=C/CC[C@H](C)[C@@H](OC(N)=O)/C(C)=C/[C@H](C)[C@H]1O
observed measurement: 0.49
--
smiles input: CO[C@H]1C[C@H](C)Cc2cc(O)cc(c2)NC(=O)/C(C)=C/CC[C@H](C)[C@@H](OC(N)=O)/C(C)=C/[C@H](C)[C@H]1O
observed measurement: 0.44

* * *

Assay: In vitro cleavage assay in buffer
Type: physicochemical
Settings: 0.1 M potassium phosphate buffer pH 6.5, 23 degrees C; read-out: half-life of disappearance (converted)
Description: Samples were monitored by LC-UV, on an Agilent 1100 HPLC. Chromatography was achieved over a Phenomenex Hyperclone column, BDS C18 3 u (150×4.6 mm): […] 0.05 ml injections were made, repeatedly from the same sample every 3.18 hours, for 50 hours. the ambient temperature was 23 degrees C. The UV response was measured for each time point for compound 23 and 17. The half-life of disappearance of compound 23 was calculated thus: […]

compound: CNCCN(C)C(=O)Oc1cc2cc(c1)NC(=O)/C(C)=C/CC[C@H](C)[C@@H](OC(N)=O)/C(C)=C/[C@H](C)[C@@H](O)[C@@H](OC)C[C@H](C)C2 [Compound 23]
half-life at 0.1 mg/ml (h): 11.9

* * *

Assay: In vitro Caco-2 assay for cell permeability
Assay type: in vitro ADME
Conditions: human, Caco-2, pH 7.4, 10 uM, 2 hour incubation; read-out: Efflux ratio Papp(B → A)/Papp(A → B)
Experimental: Caco-2 cells (ATCC Cat. # HTB-37) were grown on fibrillar collagen-coated, microporous, polycarbonate membranes in 24-well BioCaot™ insert plates. […] Prior to dosing, the transepithelial electric resistance (TEER) of the Caco-2 cells in each well was measured to ensure the quality of the monolayers. […] To quantify test compounds by LC/MS/MS, a related geldanamycin-like compound, 17-methoxyethylamino geldanamycin (Schnur et al., 1995), was used as the internal standard. […]
value type: efflux ratio at 2 h, 10 uM

smiles input: CO[C@H]1C[C@H](C)Cc2cc(O)cc(c2)NC(=O)/C(C)=C/CC[C@H](C)[C@@H](OC(N)=O)/C(C)=C/[C@H](C)[C@H]1O
value type: efflux ratio at 2 h, 10 uM
observed measurement: 6.8
--
smiles input: CO[C@H]1C[C@H](C)Cc2cc(cc(OP(=O)(O)O)c2)NC(=O)/C(C)=C/CC[C@H](C)[C@@H](OC(N)=O)/C(C)=C/[C@H](C)[C@H]1O
value type: efflux ratio at 2 h, 10 uM
observed measurement: 0.7
